Measured values drawn from patent US20030068675 for this set.

- System name: T1, ZFP SBS#1009 (synthetic)
- T1 chain: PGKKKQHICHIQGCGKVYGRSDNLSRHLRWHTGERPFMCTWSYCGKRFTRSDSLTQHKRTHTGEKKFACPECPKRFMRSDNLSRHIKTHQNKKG
- Procedure text: EMSA
- Cond: tags: MBP fusion
Parameter measured: Kd (nM)
Numbers only, in nM.

# lookup: Kd of GAGATGGAG (dsDNA) DNA 1: GAGATGGAG DNA 2: CTCCATCTC 1.9
